Below, each entry is listed with its recorded Kd.
Target: GDP-bound KRAS wild-type protein (Homo sapiens, UniProt P01116)
Sequence (P01116 1-188 isoform P01116-2): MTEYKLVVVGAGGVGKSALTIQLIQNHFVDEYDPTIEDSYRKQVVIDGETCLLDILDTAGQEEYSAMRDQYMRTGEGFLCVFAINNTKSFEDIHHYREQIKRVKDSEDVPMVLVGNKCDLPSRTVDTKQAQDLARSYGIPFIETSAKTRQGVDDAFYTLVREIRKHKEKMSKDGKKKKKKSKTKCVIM
Experiment: Binding to KRAS by surface plasmon resonance (SPR), dissociation constant KD
Conditions: Single Cycle Kinetics, 1:1 binding model

smilesCode: CCO[C@@H]1C[C@H]2C(=O)NC3(CCC3)C(=O)N(C)[C@@H](C3CCCC3)C(=O)N(C)[C@H](C(=O)N(C)C)CC(=O)N(C)[C@@H](CC3CCCCC3)C(=O)N[C@@H]([C@@H](C)CC)C(=O)N(C)CC(=O)N(C)[C@H]3CCCCCN(C3=O)[C@@H](Cc3ccc(C(F)(F)F)cc3)C(=O)N(C)CC(=O)N[C@@H](CCc3cc(F)c(C(F)(F)F)c(F)c3)C(=O)N2C1
Kd (nM): 0.67
--
smilesCode: CCO[C@@H]1C[C@H]2C(=O)NC3(CC(C)(C)C3)C(=O)N(C)[C@@H](C(CC)CC)C(=O)N(C)[C@H](C(=O)N(C)C)CC(=O)N(C)[C@@H](C(C)C)C(=O)N[C@@H]([C@@H](C)CC)C(=O)N(C)CC(=O)N(C)[C@H]3C/C=C\CCN(C3=O)[C@@H](Cc3ccc(C)cc3)C(=O)N(C)CC(=O)N[C@@H](CCc3ccc(C(F)(F)F)c(Cl)c3)C(=O)N2C1
Kd (nM): 0.79
--
smilesCode: CCO[C@@H]1C[C@H]2C(=O)NC3(CCC3)C(=O)N(C)[C@@H](C3CCCC3)C(=O)N(C)[C@H](C(=O)N3CCOCC3)CC(=O)N(C)[C@@H](CC3CCCC3)C(=O)N[C@@H]([C@@H](C)CC)C(=O)N(C)CC(=O)N(C)[C@H]3C/C=C\CCN(C3=O)[C@@H](Cc3ccc(C(F)(F)F)cc3)C(=O)N(C)CC(=O)N[C@@H](CCc3cc(F)c(C(F)(F)F)c(F)c3)C(=O)N2C1
Kd (nM): 0.19
--
smilesCode: CCO[C@@H]1C[C@H]2C(=O)NC3(CCC3)C(=O)N(C)[C@@H](C3CCCC3)C(=O)N(C)[C@H](C(=O)N(C)C)CC(=O)N(C)[C@@H](CC3CCCC3)C(=O)N[C@@H]([C@@H](C)CC)C(=O)N(C)CC(=O)N(C)[C@H]3C/C=C\CCN(C3=O)[C@@H](Cc3ccc(F)cc3)C(=O)N(C)CC(=O)N[C@@H](CCc3ccc4sccc4c3)C(=O)N2C1
Kd (nM): 1.1

====

Below, each entry is listed with its recorded pKd.
Target: GDP-bound KRAS wild-type protein (Homo sapiens)
Assay: Binding to KRAS by surface plasmon resonance (SPR), dissociation constant KD
Details: 1:1 binding model
pKd: −log10 of the molar value.

compound: CCOC[C@H]1C(=O)N[C@@H]([C@@H](C)CC)C(=O)N(C)CC(=O)N(C)[C@H]2C/C=C\CCN(C2=O)[C@@H](Cc2ccc(C)cc2)C(=O)N(C)CC(=O)N[C@@H](CCc2ccc(C(F)(F)F)c(OC)c2)C(=O)N2C[C@H](OCC)C[C@H]2C(=O)NC2(CC(C)(C)C2)C(=O)N(C)[C@@H](C2CCCC2)C(=O)N(C)[C@H](C(=O)N(CC)CC)CC(=O)N1C [PP2406]
pKd: 9.54
//
compound: CCCOC[C@H]1C(=O)N[C@@H]([C@@H](C)CC)C(=O)N(C)CC(=O)N(C)[C@H]2C/C=C\CCN(C2=O)[C@@H](CC2CCC(F)(F)CC2)C(=O)N(C)CC(=O)N[C@@H](CCc2cc(F)c(C(F)(F)F)c(F)c2)C(=O)N2C[C@H](OCC)C[C@H]2C(=O)NC2(CC(C)(C)C2)C(=O)N(C)[C@@H](C(CC)CC)C(=O)N(C)[C@H](C(=O)N(C)C)CC(=O)N1C [PP2472]
pKd: 9.24
//
compound: CCC[C@H]1C(=O)N[C@H]([C@@H](C)CC)C(=O)N(C)CC(=O)N(C)[C@H]2C/C=C\CCN(C2=O)[C@@H](Cc2ccc(C)cc2)C(=O)N(C)CC(=O)N[C@@H](CCc2cc(F)c(C(F)F)c(F)c2)C(=O)N2C[C@H](OCC)C[C@H]2C(=O)NC2(CC(C)(C)C2)C(=O)N(C)[C@@H](C(CC)CC)C(=O)N(C)[C@H](C(=O)N(C)C)CC(=O)N1C (stereo in doubt) [PP2783]
pKd: 8.77
//
compound: CCC[C@H]1C(=O)N[C@@H]([C@@H](C)CC)C(=O)N(C2CC2)CC(=O)N(C)[C@H]2C/C=C\CCN(C2=O)[C@@H](Cc2ccc(C(F)F)cc2)C(=O)N(C)CC(=O)N[C@@H](CCc2cc(F)c(C(F)(F)F)c(F)c2)C(=O)N2C[C@H](OC(C)C)C[C@H]2C(=O)NC2(CC(C)(C)C2)C(=O)N(C)[C@@H](C(CC)CC)C(=O)N(C)[C@H](C(=O)N(C)C)CC(=O)N1C [PP2529]
pKd: 9.11
//
compound: CCO[C@@H]1C[C@H]2C(=O)NC3(CC(C)(C)C3)C(=O)N(C)[C@@H](C3CCCC3)C(=O)N(C)[C@H](C(=O)N(C)C)CC(=O)N(C)[C@@H]([C@H](C)OC)C(=O)N[C@@H]([C@@H](C)CC)C(=O)N3CCC[C@H]3C(=O)N(C)[C@H]3C/C=C\CCN(C3=O)[C@@H](Cc3ccc(C(F)(F)F)cc3)C(=O)N(C)CC(=O)N[C@@H](CCc3ccc(C(F)(F)F)c(OC)c3)C(=O)N2C1 [PP3179]
pKd: 9.11
//
compound: CCO[C@@H]1C[C@H]2C(=O)NC3(CC(C)(C)C3)C(=O)N(C)[C@@H](C3CCCC3)C(=O)N(C)[C@H](C(=O)N(C)CC)CC(=O)N(C)[C@@H](CC(C)C)C(=O)N[C@@H]([C@@H](C)CC)C(=O)N(C)CC(=O)N(C)[C@H]3C/C=C\CCN(C3=O)[C@@H](Cc3ccc(C(F)F)cc3)C(=O)N(C)CC(=O)N[C@@H](CCc3cc(F)c(Cl)c(OC)c3)C(=O)N2C1 [PP3142]
pKd: 9.36
